We begin with a simple list: items and their reported growth inhibition.
- experimental.details: NCI Yeast Anticancer Drug Screen. Data for the bub3 strain (AID 167)
- particulars: S. cerevisiae bub3 mutant strain, at 50.0 µM, hits give high values
This is part of a sample that, as a whole, favours compounds with a hit. Of some 79,000 tested, about 15% had one in any assay.
Kindly answer with a numeric value in %, unit omitted.

Cc1cc(C)c([N+](=O)[O-])cc1[N+](=O)[O-] ... -3.4
c1ccc(Sc2cccc3c(-c4ccccc4)c4cccc5c4c(c23)C[S+]5c2ccccc2)cc1 (stereo unspecified) ... 98.6

growth inhibition recorded for this compound, CCN(CC)CC1CCCCN1 (stereo unspecified) , is 1.4

Lab note: COC(=O)C(=O)C(C(=O)C(=O)Nc1ccccc1C(N)=O)c1nc2ccc(C(=O)c3ccccc3)cc2[nH]c1=O (stereo unspecified) gave growth inhibition of -6.1

* * *

- experimental.details: NCI Yeast Anticancer Drug Screen. Data for the mec2-1 strain (AID 157)
- particulars: S. cerevisiae mec2-1 strain, at 50.0 µM, hits give high values
This is part of a sample that, as a whole, favours compounds with a hit. Of some 79,000 tested, about 15% had one in any assay.
Would you mind sorting the entries by growth inhibition according to these classes? c1: < -20%; c2: ≥ -20% and < 10%; c3: ≥ 10%

O=C1NCCCC1O (stereo unspecified) ... c2
[Cl-].[Nd+3].[O-]/N=C(\c1ccccc1)c1ccccn1.[O-]/N=C(\c1ccccc1)c1ccccn1.[O-]/N=C(\c1ccccc1)c1ccccn1 ... c3
O=S(=O)(/N=C1C=C/C(=N\S(=O)(=O)c2ccccc2)C2C/1C2(c1ccccc1)c1ccccc1)c1ccccc1 (stereo unspecified) ... c3
Cc1ccccc1N1C(=O)/C(=C/c2ccc(N(CCC#N)CCC#N)cc2)N=C1c1cc([N+](=O)[O-])ccc1Cl ... c2

### Prompt // bin(item) where item = OC1CCCC2CCCC12 (stereo unspecified)
### Response c2

### Prompt Band for the recorded growth inhibition of C/C=C(\CC)C(C#N)(CC)C(=O)OCC (stereo unspecified) ?
### Response c2

### Prompt Lab note: sort COc1ccc(C(C#N)CC(=O)c2ccccc2)cc1 (stereo unspecified) into the matching growth inhibition band.
### Response c3

### Prompt Which class does `Cc1cc(Br)c(O)c(-c2cscn2)c1` fall in?
### Response c1

### Prompt Determine which band this compound sits in: `COC(=O)/C(C#N)=C1\NC(=O)c2ccccc21`
### Response c3

### Prompt Just checking, what class would you give CC1=CC(O)(Cc2ccccc2)CC(C)(C)C1 (stereo unspecified) here?
### Response c1

* * *

- experimental.details: NCI Yeast Anticancer Drug Screen. Data for the mec2-1 strain (AID 157)
- particulars: S. cerevisiae mec2-1 strain, at 50.0 µM, hits give high values
The panel holds about 79,000 compounds, 15% with a hit somewhere; the sample as a whole holds those more often.
value.kind: growth inhibition (%)
Give the value, in units of %, as a plain number.

// field: growth inhibition; key: `CCOC(=O)/C(C#N)=C/c1ccccc1OC` ; value = 38.9

# growth inhibition (compound: `O=C(OCc1ccccc1CN1CCOCC1)c1cccc(Cl)c1` ) is -1.55

Memo: c1ccc(COC2COC(c3ccccc3)OC2)cc1 (stereo not given) , reported growth inhibition: -35

Measured growth inhibition of `Cc1ccccc1NC(=O)NN` : -24.1

// `NC(=O)CSc1ccccc1` : growth inhibition value = 2.1

For reference, reported growth inhibition for `C[C@]12CC[C@@H]3c4cc(OCC(F)(F)F)c(O)cc4/C(=N/O)C[C@H]3[C@@H]1CC[C@@H]2O` stands at -4.55

Entry `O=C(COc1cccc(Cl)c1)Nc1ccccc1` ; growth inhibition = -31.9

Data point: `CC1(C)CC(=O)C(N=Nc2ccccc2)=C(O)C1` ; growth inhibition = 2.3

Quick note, growth inhibition for `CCOC(=O)C(CNCc1ccccc1)(c1ccccc1)c1ccccc1` landed at -4.85

For this compound ( `CN(C)C(=O)Sc1ccc(N(C)C)cc1` ), measured growth inhibition is -17.9

Given item `c1ccc2cc3c(cc2c1)OP1(=NP2(=NP4(=N1)Oc1cc5ccccc5cc1O4)Oc1cc4ccccc4cc1O2)O3` , the value recorded as its growth inhibition is 28.1

Entry `CCOc1cc(C)c2cccc(C)c2n1` — recorded growth inhibition = -0.35

Measured growth inhibition of `CC(C)c1cc(C(C)C)c(Cc2c(C(C)C)cc(C(C)C)cc2C(C)C)c(C(C)C)c1` : 14.2

compound `CCCCCc1cc(O)cc2c1Oc1cc(O)cc(C(=O)CCCC)c1C(=O)O2` , growth inhibition observed: -17.2

Notebook: `COc1cccc(NC(=O)CC(=O)NN2C(=O)/C(=C/c3ccc(N(CCC#N)CCC#N)cc3)N=C2c2cc([N+](=O)[O-])ccc2Cl)c1` , growth inhibition read as -5.05

The compound listed as `O=c1oc2c(c(N(c3ccccc3)c3ccccc3)c1Cl)CCc1nc(-c3ccccc3)sc1-2` has a reported growth inhibition of -1.25

Notebook: `Cc1ccc(S(=O)(=O)NC(=O)Nc2c(-c3nc4ccccc4s3)[n+]([O-])c3ccccc3[n+]2[O-])cc1` , growth inhibition read as 5.5

Record summary for `COc1cccc([N+](=O)[O-])c1` : reported growth inhibition = 32.2

compound `COCCN(CCOC)C(=O)Nc1cccc(Cl)c1` , growth inhibition observed: 6.3

The measured growth inhibition associated with `Cc1ncc([N+](=O)[O-])n1CCSC(N)=O` reads -13.6

* * *

- experimental.details: NCI Yeast Anticancer Drug Screen. Data for the cln2 rad14 strain (AID 165);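 note: 0% = growth equal to vehicle treated cultures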
- particulars: S. cerevisiae cln2 rad14 strain, at 50.0 µM, hits give high values
This is part of a sample that, as a whole, favours compounds with a hit. Of some 79,000 tested, about 15% had one in any assay.
Entries annotated with measured growth inhibition
All answers are understood in %, so give the number only.

Below are worked cases with known answers.
CC(=O)NN(C)C(C)=O ... 12.4
O=C(O)C(CO)Nc1ccccc1 (centres undefined) ... 12.9
Cc1cc2[nH]c3c(C#N)c(O)c(C(C)C)c(=O)n3c2cc1C ... 1.35
CSCC[C@H](NC(C)=O)B1OCCO1 ... 6.05
COC(=O)C(=[N+]=[N-])C(=O)c1ccccc1 ... 4.65

Please fill in: growth inhibition reported for `CC(=O)c1cc(C)c(O)c(C)c1` = -4.05

The measured growth inhibition associated with CNc1ncnc2c1ncn2C1OC(CO)C(O)C1O (centres undefined) reads -20.1

Data point: `C=CCn1c(=S)sc2ccccc21` ; growth inhibition = 17.7

Consider `O=C(O)c1cc(Cl)c(Cl)s1` . Its measured growth inhibition is -68.9

Reported growth inhibition ( `O=C(C[n+]1cccc2cccc(O)c21)c1ccc2ccccc2c1` ) = 26.6

The compound listed as CN(C)C(=O)C1C2CC3OC(=O)C1C3C2 (centres undefined) shows growth inhibition equal to -41.3

Quick note, growth inhibition for `COC(=O)c1cc(C)nc(Cl)c1C(=O)O` landed at 0

growth inhibition in this record for O=C(OC1CC2CCC23CCC13)c1ccccc1 (centres undefined) : -7.6

Given item `CCOC(=O)c1ccc([N+](=O)[O-])cc1` , the value recorded as its growth inhibition is -29.2

* * *

- experimental.details: NCI Yeast Anticancer Drug Screen. Data for the sgs1 mgt1 strain (AID 161);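 note: 0% = growth of cultures given vehicle only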
- particulars: S. cerevisiae sgs1 mgt1 strain, at 50.0 µM, hits give high values
About 79,000 compounds went through this panel and 15% of them were active in at least one assay; those are over-represented in the sample as a whole.
Quick rule for you: growth inhibition at 10% or higher means criterion met, lower means criterion not met.

Cn1c2ccccc2c(=O)c2cc(NC(=O)/C=C/C(=O)Nc3ccc4c(c3)c(=O)c3ccccc3n4C)ccc21 ... criterion not met
O=C(O)C[C@H]1CCCCC12CCOC2=O (stereo partly drawn) ... criterion not met
CN1c2ccccc2SC1(C)CCC(=O)O (stereo not drawn) ... criterion met
CC1(C#N)CC/C(=C\c2ccc3c(c2)OCO3)C(=O)C1 (stereo not drawn) ... criterion not met
Cn1/c(=N\N=C2\C=C3CCCCC3(C)CC2)sc2ccccc21 (stereo not drawn) ... criterion met

### Prompt hey, is growth inhibition for this one >= 10%? CC1C(=O)C(O)CC2C1(C)CCC1C2(C)CCC2(C)C3CC(C)(C)CCC3(C)CCC12C (stereo not drawn)
### Response criterion not met

### Prompt Does growth inhibition meet or surpass 10% for `CCOC(OCC)C(=O)NNC(C)C` ?
### Response criterion not met

### Prompt Is it the case that CC(=S)NC(O)C(=O)c1ccccc1 (stereo not drawn) has growth inhibition reaching or exceeding 10%?
### Response criterion met

### Prompt Is reported growth inhibition greater than or equal to 10% here: `COc1ccc(N)c(OC)c1`
### Response criterion not met

### Prompt Has `N#C/C(=C\c1cccc(Cl)c1)C(=O)c1ccccc1` a recorded growth inhibition greater than or equal to 10%?
### Response criterion not met

### Prompt Evaluate CC(=O)c1cccc(F)c1C(C)c1ccc2ccccc2c1 (stereo not drawn) : growth inhibition at minimum 10%?
### Response criterion not met

### Prompt Can COc1ccc(C2SC(N)=Nc3c2c(C)nn3C(=O)c2ccc(Cl)cc2)cc1 (stereo not drawn) be said to have growth inhibition at or above 10%?
### Response criterion met

### Prompt Could you please find out whether `CCOP(=O)(OCC)/C(C#N)=C/c1cccc([N+](=O)[O-])c1` has growth inhibition that meets 10% or exceeds it?
### Response criterion not met

### Prompt Please indicate if the recorded growth inhibition for `C=COC(=O)c1ccccc1O` meets or exceeds 10%.
### Response criterion not met

### Prompt Could you verify whether the entry COc1ccc(C(C)S(=O)(=O)c2ccccc2)cc1OC (stereo not drawn) shows growth inhibition of no less than 10%?
### Response criterion not met

### Prompt Say whether `O=C(NN1CCCCC1)NN1CCCCC1` shows growth inhibition of 10% or more.
### Response criterion not met

### Prompt Reported growth inhibition reaches at least 10% for `C(/C=C/c1ccccc1)=C1SCCCS1` ?
### Response criterion not met

### Prompt Decide: is the reported value of growth inhibition for CSCCC(NC(=O)CCCOc1ccc(Cl)cc1C)C(=O)O (stereo not drawn) equal to or greater than 10%?
### Response criterion not met
